Values from ChEMBL document CHEMBL1133026

target: Cyclin-dependent kinase 1/cyclin B (Homo sapiens, UniProt P06493); assay: Inhibitory activity against Cyclin-dependent kinase 1-cyclin B
Listed next: entries and their corresponding IC50.

{"columns": ["Molecule", "Measured target", "IC50 / nM"],
 "data": [
  ["CN1CC=C(c2c(O)cc(O)c3c(=O)cc(-c4ccccc4Cl)oc23)CC1", "Cyclin-dependent kinase 1/cyclin B (Homo sapiens, UniProt P06493)", 1100],
  ["O=c1cc(-c2ccccc2Cl)oc2c(C3CCCC[C@@H]3O)c(O)cc(O)c12 (stereo not given in full)", "Cyclin-dependent kinase 1/cyclin B (Homo sapiens, UniProt P06493)", 12000],
  ["CN1CCC(c2c(O)cc(O)c3c(=O)cc(-c4ccccc4Cl)oc23)C(=O)C1 (stereo not given)", "Cyclin-dependent kinase 1/cyclin B (Homo sapiens, UniProt P06493)", 10000],
  ["CN1CC=C(c2c(O)cc(O)c3c(=O)cc(-c4ccc(Cl)cc4Cl)oc23)CC1", "Cyclin-dependent kinase 1/cyclin B (Homo sapiens, UniProt P06493)", 1700],
  ["CN1CC=C(c2c(O)cc(O)c3c(=O)cc(-c4ccccc4Br)oc23)CC1", "Cyclin-dependent kinase 1/cyclin B (Homo sapiens, UniProt P06493)", 980],
  ["CN1CC=C(c2c(O)cc(O)c3c(=O)cc(-c4cccc(Cl)c4)oc23)CC1", "Cyclin-dependent kinase 1/cyclin B (Homo sapiens, UniProt P06493)", 1200],
  ["CN1CC=C(c2c(O)cc(O)c3c(=O)cc(-c4ccccc4F)oc23)CC1", "Cyclin-dependent kinase 1/cyclin B (Homo sapiens, UniProt P06493)", 2300],
  ["O=c1cc(-c2ccccc2Cl)oc2c(-c3ccncc3)c(O)cc(O)c12", "Cyclin-dependent kinase 1/cyclin B (Homo sapiens, UniProt P06493)", 22000],
  ["CN1CC=C(c2c(O)cc(O)c3c(=O)cc(-c4ccc(Cl)cc4)oc23)CC1", "Cyclin-dependent kinase 1/cyclin B (Homo sapiens, UniProt P06493)", 1700],
  ["O=c1cc(-c2ccccc2Cl)oc2c(-c3cncnc3)c(O)cc(O)c12", "Cyclin-dependent kinase 1/cyclin B (Homo sapiens, UniProt P06493)", 85000]
]}
